Below, each entry is listed alongside its reported IC50.
biological target: Human Calpain 1/NS1 (Homo sapiens, UniProt P07384); test: Biochemical inhibition of calpain 1, continuous fluorescence (FRET substrate) assay; conditions: mean, read-out: Human Calpain 1/NS1 IC50 (nM)_MEAN
Sequence (P07384 whole entry): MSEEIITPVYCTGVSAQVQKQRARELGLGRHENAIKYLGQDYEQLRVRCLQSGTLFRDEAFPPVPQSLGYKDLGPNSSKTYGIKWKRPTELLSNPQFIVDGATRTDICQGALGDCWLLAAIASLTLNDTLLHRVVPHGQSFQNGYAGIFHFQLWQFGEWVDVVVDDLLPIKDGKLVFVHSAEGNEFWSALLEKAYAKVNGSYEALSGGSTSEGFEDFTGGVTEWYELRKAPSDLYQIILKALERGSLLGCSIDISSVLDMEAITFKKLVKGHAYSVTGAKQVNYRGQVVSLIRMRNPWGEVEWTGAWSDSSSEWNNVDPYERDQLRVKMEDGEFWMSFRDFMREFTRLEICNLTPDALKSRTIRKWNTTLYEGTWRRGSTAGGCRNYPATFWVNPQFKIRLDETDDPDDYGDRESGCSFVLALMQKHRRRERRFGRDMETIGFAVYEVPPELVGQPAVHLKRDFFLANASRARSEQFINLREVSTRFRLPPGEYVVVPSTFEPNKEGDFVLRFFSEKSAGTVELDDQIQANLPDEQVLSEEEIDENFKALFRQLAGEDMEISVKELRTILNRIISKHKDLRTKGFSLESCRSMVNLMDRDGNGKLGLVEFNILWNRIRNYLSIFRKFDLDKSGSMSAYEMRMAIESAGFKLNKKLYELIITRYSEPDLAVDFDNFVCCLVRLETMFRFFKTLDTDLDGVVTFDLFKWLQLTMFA
Sequence (P04632 whole entry partner): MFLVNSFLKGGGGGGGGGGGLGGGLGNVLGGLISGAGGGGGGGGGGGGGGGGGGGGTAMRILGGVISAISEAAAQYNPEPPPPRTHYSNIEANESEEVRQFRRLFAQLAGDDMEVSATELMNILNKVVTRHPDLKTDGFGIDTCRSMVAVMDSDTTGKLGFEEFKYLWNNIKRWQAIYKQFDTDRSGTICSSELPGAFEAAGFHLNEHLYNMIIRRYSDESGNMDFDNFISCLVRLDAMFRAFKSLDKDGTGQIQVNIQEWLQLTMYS

MOLECULE	EXPERIMENTAL_TARGET	IC50
CC(C)NC(=O)C(=O)[C@@H]1CCCCOCCOCc2ccccc2C(=O)N1	Human Calpain 1/NS1 (Homo sapiens, UniProt P07384)	> 10000 nM
O=C(NCc1ccccc1)C(=O)C1CCCCOCCOCc2ccccc2C(=O)N1 (stereo not shown)	Human Calpain 1/NS1 (Homo sapiens, UniProt P07384)	> 10000 nM
O=C[C@@H]1CCCCCCOCc2ccccc2C(=O)N1	Human Calpain 1/NS1 (Homo sapiens, UniProt P07384)	> 10000 nM
Cc1cccc(Cl)c1CNC(=O)C(=O)C1CCCCOCCOCc2ccccc2C(=O)N1 (stereo not shown)	Human Calpain 1/NS1 (Homo sapiens, UniProt P07384)	> 10000 nM
O=C(NCCc1ccc(Cl)cc1)C(=O)[C@@H]1C/C=C\COCCOCc2ccccc2C(=O)N1	Human Calpain 1/NS1 (Homo sapiens, UniProt P07384)	3000 to 10000 nM
CCNC(=O)C(=O)[C@@H]1C/C=C/CCCCCCc2ccccc2C(=O)N1	Human Calpain 1/NS1 (Homo sapiens, UniProt P07384)	> 10000 nM
O=C[C@@H]1Cc2cccc(c2)CCCOCc2ccccc2C(=O)N1	Human Calpain 1/NS1 (Homo sapiens, UniProt P07384)	< 3000 nM
CCNC(=O)C(=O)[C@@H]1CCCCCCCCCc2ccccc2C(=O)N1	Human Calpain 1/NS1 (Homo sapiens, UniProt P07384)	> 10000 nM

Human Calpain 1/NS1 (Homo sapiens, UniProt P07384) data for O=C(NCc1ccc(OC(F)(F)F)cc1)C(=O)C1CCCCOCCOCc2ccccc2C(=O)N1 (stereo not shown) ; its IC50: > 10000 nM

Human Calpain 1/NS1 (Homo sapiens, UniProt P07384) data for Cc1cccc(C)c1NC(=O)C(=O)[C@@H]1CCCCOCCOCc2ccccc2C(=O)N1 ; its IC50: > 10000 nM

Human Calpain 1/NS1 (Homo sapiens, UniProt P07384) data for O=C[C@@H]1CC=CCCOc2cccc(c2)-c2ccccc2C(=O)N1 ; its IC50: < 3000 nM

Human Calpain 1/NS1 (Homo sapiens, UniProt P07384) data for CCCCc1ccc(CNC(=O)C(=O)C2CCCCOCCOCc3ccccc3C(=O)N2)cc1 (stereo not shown) ; its IC50: > 10000 nM

Human Calpain 1/NS1 (Homo sapiens, UniProt P07384) data for O=C[C@@H]1CCCCCCOc2ccnc(n2)-c2ccccc2C(=O)N1 ; its IC50: < 3000 nM

Human Calpain 1/NS1 (Homo sapiens, UniProt P07384) data for CCCCNC(=O)C(=O)[C@@H]1C/C=C/COCCOCc2ccccc2C(=O)N1 ; its IC50: > 10000 nM

Human Calpain 1/NS1 (Homo sapiens, UniProt P07384) data for O=C(NCCCN1CCOCC1)C(=O)C1CCCCOCCOCc2ccccc2C(=O)N1 (stereo not shown) ; its IC50: > 10000 nM

Human Calpain 1/NS1 (Homo sapiens, UniProt P07384) data for O=C[C@@H]1Cc2ccc(cc2)CCCCc2ccc3nn(cc3c2)-c2ncccc2C(=O)N1 ; its IC50: < 3000 nM

Human Calpain 1/NS1 (Homo sapiens, UniProt P07384) data for CN(C)CCNC(=O)C(=O)C1CCCCOCCOCc2ccccc2C(=O)N1 (stereo not shown) ; its IC50: > 10000 nM

Human Calpain 1/NS1 (Homo sapiens, UniProt P07384) data for CS(=O)(=O)c1cccc(CNC(=O)C(=O)C2CCCCOCCOCc3ccccc3C(=O)N2)c1 (stereo not shown) ; its IC50: > 10000 nM

Human Calpain 1/NS1 (Homo sapiens, UniProt P07384) data for O=C[C@@H]1Cc2ccccc2CCCOCCCn2cncc2C(=O)N1 ; its IC50: 3000 to 10000 nM

Human Calpain 1/NS1 (Homo sapiens, UniProt P07384) data for O=C(NCc1ccc(F)cc1)C(=O)C1CCCCOCCOCc2ccccc2C(=O)N1 (stereo not shown) ; its IC50: > 10000 nM
